- measurement-target: UGT2B7 (Homo sapiens)
- run-description: in vitro
- run-conditions: pH 7.4, Km, HLM, with 1% BSA, mean ± SD
attribute-measured: Km at 120 min
Answer format reminder: number followed by unit.

Prompt line: # input compound: `Cc1cn([C@H]2C[C@H](N=[N+]=[N-])[C@@H](CO)O2)c(=O)[nH]c1=O` ; wanted: its Km at 120 min
Response line: 880 µM

====

- Tested on: UGT2B7
- run-description: ZDV glucuronidation kinetics in RLM
- run-conditions: rat, pH 7.4, Km, with 1% BSA, mean ± SD
attribute-measured: Km at 90 min (mM)
Please reply with the bare figure in mM and do not write the unit itself.

Prompt line: Can you share its Km at 90 min? I mean this compound: `Cc1cn([C@H]2C[C@H](N=[N+]=[N-])[C@@H](CO)O2)c(=O)[nH]c1=O`
Response line: 6.77

====

Collected IC50 values appear next to each entry.
- measurement-target: UGT2B7 (Homo sapiens, UniProt P16662)
- Sequence (P16662 24-529): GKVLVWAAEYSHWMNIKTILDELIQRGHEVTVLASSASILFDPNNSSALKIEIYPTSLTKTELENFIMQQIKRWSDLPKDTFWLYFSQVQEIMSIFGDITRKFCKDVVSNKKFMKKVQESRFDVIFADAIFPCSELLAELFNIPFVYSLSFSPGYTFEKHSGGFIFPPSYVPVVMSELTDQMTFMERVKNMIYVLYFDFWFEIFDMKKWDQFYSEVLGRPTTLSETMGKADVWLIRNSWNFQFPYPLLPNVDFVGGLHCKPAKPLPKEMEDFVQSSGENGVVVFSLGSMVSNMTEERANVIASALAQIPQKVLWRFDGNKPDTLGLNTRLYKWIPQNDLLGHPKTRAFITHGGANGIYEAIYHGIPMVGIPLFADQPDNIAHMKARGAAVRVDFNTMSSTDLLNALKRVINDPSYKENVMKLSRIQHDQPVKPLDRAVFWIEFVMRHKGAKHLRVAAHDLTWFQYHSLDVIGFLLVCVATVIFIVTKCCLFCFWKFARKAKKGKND
- run-description: Inhibition of ZDV glucuronidation in human liver microsomes (HLM)
- run-conditions: concentration showing 50% inhibition of ZDV glucuronidation in HLM (screening), screening at 1 µM, 10 µM and 100 µM

Prompt line: Any idea what its IC50 is? The compound is C/C1=C\CC(C)(C)/C=C/C(=O)/C(C)=C/CC1 [zerumbone]
Response line: < 100 µM

Prompt line: Can you share its IC50? I mean this compound: C=C1CC[C@@H]2[C@](C)(CO)[C@H](O)CC[C@@]2(C)[C@@H]1C/C=C1/C(=O)OC[C@H]1O [Andrographolide, andrographolide]
Response line: < 100 µM

Prompt line: Which IC50 value belongs to CCC1CN2CCc3c([nH]c4cccc(OC)c34)C2CC1/C(=C\OC)C(=O)OC (stereo not drawn) [mitragynine] ?
Response line: < 100 µM

====

- Test system: UGT2B7
- run-description: Inhibition of ZDV glucuronidation in rat liver microsomes (RLM)
- run-conditions: rat, pH 7.4, concentration inhibiting ZDV glucuronidation in RLM higher than 50% (screening), screening at 1 µM, 10 µM and 100 µM
attribute-measured: IC50 at 90 min

Prompt line: // returns reported IC50 at 90 min for input CCC1CN2CCc3c([nH]c4cccc(OC)c34)C2CC1/C(=C\OC)C(=O)OC (stereo not shown)
Response line: < 100 µM
